Values compiled from patent USRE48558.

- system_under_test: T1, extracellular domain of human CD79b (human, UniProt P40259 29-159)
- T1 construct: also called huCD79becd; huCD79b-ecd
- T1 sequence: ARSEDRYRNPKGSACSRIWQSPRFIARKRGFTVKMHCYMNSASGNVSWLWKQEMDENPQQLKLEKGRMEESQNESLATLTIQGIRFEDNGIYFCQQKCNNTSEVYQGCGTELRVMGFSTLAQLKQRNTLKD
- measurement_protocol: phage selection, Fab on phage, plate-bound huCD79becd
readout: binding result

binder: huMA79b graft variant SEQ ID NO: 18 (Fab, name in Kabat numbering, V domains shown, Fab on phage; rest as huMA79b graft) VH: EVQLVESGGGLVQPGGSLRLSCAASGYTFSSYWIEWVRQAPGKGLEWVGEILPGGGDTNYNEIFKGRFTISADTSKNTAYLQMNSLRAEDTAVYYCTRRVPVYFDYWGQGTLVTVSS VL: DIQMTQSPSSLSASVGDRVTITCKASQSVDYDGDSFLNWYQQKPGKAPKLLIYAASNRESGVPSRFSGSGSGTDFTLTISSLQPEDFATYYCQQSNEDPLTFGQGTKVEIKR
readout: binding result
obs_value: binds
//
binder: huMA79b graft variant SEQ ID NO: 92 (Fab, name in Kabat numbering, V domains shown, Fab on phage; rest as huMA79b graft) VH: EVQLVESGGGLVQPGGSLRLSCAASGYTFSSYWIEWVRQAPGKGLEWVGEILPGGGDTNYNEIFKGRFTISADTSKNTAYLQMNSLRAEDTAVYYCTRRVPFCLDYWGQGTLVTVSS VL: DIQMTQSPSSLSASVGDRVTITCKASQSVDYDGDSFLNWYQQKPGKAPKLLIYAASNLESGVPSRFSGSGSGTDFTLTISSLQPEDFATYYCQQSNEDPLTFGQGTKVEIKR
readout: binding result
obs_value: binds
//
binder: huMA79b graft variant SEQ ID NO: 68 (Fab, name in Kabat numbering, V domains shown, Fab on phage; rest as huMA79b graft) VH: EVQLVESGGGLVQPGGSLRLSCAASGYGFTSYWISWVRQAPGKGLEWVGEILPGGGDTNYNEIFKGRFTISADTSKNTAYLQMNSLRAEDTAVYYCTRRVPVYFDYWGQGTLVTVSS VL: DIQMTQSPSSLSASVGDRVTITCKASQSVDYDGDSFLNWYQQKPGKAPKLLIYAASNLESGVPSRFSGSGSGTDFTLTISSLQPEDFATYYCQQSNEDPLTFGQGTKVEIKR
readout: binding result
obs_value: binds
